The reported numbers originate from patent US20160220569A1.

experiment: Topotecan PK following Compound 1 infusion; assay type: in vivo, human; conditions: human, plasma, intravenous, topotecan 1.25 mg/m^2 (Cohort 2) after Compound 1 200 mg/m^2; Day 1; mean; read-out: Cmax averaged
testReadout: Cmax (ng/mL)
Only the number, expressed in ng/mL, is required.

Provide one value: measured Cmax of CC[C@@]1(O)C(=O)OCc2c1cc1n(c2=O)Cc2cc3c(CN(C)C)c(O)ccc3nc2-1.Cl 63.7

---

Experiment: 14-day oral gavage toxicokinetic study in rats
Assay type: in vivo
Details: female, rat, plasma, po, 30 mg/kg, Individual Compound 1 Plasma Concentration, rats, daily oral 30 mg/kg, Day 14, Female, 0.5 h
Description: Plasma was obtained from blood samples collected from rats in a composite sampling scheme, with 3 samples collected per sex, per dose, at each target collection time, as illustrated in Table 21 to Table 25. […] The following parameters were determined: […] A value of 0 ng/mL was assigned to all values below the lower limit of quantitation (BLQ, <10.0 ng/mL). […] CL: Clearance (L/h/kg), calculated as the dose divided by AUC(0-t). […] Cmax/Dose: Normalized Cmax, calculated as Cmax divided by total dose. […]
testReadout: concentration at 0.5 h (ng/mL)
Only the number, expressed in ng/mL, is required.

Provide one value: measured concentration at 0.5 h of CN1CCN(c2ccc(Nc3ncc4cc5n(c4n3)C3(CCCCC3)CNC5=O)nc2)CC1 [Compound 1] 1450

---

Assay: 14-day oral gavage toxicokinetic study in rats
Type: in vivo
Conditions: male, rat, plasma, po, 15 mg/kg, oral 15 mg/kg, Study Day 14, Male; read-out: t½ (converted)
Experimental: Plasma was obtained from blood samples collected from rats in a composite sampling scheme, with 3 samples collected per sex, per dose, at each target collection time, as illustrated in Table 21 to Table 25. […] The following parameters were determined: […] A value of 0 ng/mL was assigned to all values below the lower limit of quantitation (BLQ, <10.0 ng/mL). […] CL: Clearance (L/h/kg), calculated as the dose divided by AUC(0-t). […] Cmax/Dose: Normalized Cmax, calculated as Cmax divided by total dose. […]
testReadout: half-life
Don't forget the unit after the value.

Provide one value: measured half-life of CN1CCN(c2ccc(Nc3ncc4cc5n(c4n3)C3(CCCCC3)CNC5=O)nc2)CC1 [Compound 1] 3.7 h

---

Assay: Compound 1 PK dosed Days 1-5 with topotecan
Format: in vivo, human
Conditions: human, plasma, intravenous, Cohort 1 (Topotecan […]^2); Compound 1 200 mg/m^2; Day 4; mean; read-out: average Cmax
Experimental: Analysis of plasma concentration versus time data for calculation of standard pharmacokinetic (PK) parameters following intravenous infusion administration was conducted using Phoenix WinNonlin version 6.3 using a nominal infusion duration and scheduled blood sampling times.
testReadout: Cmax (ng/mL)
Only the number, expressed in ng/mL, is required.

Provide one value: measured Cmax of CN1CCN(c2ccc(Nc3ncc4cc5n(c4n3)C3(CCCCC3)CNC5=O)nc2)CC1 999

---

test: 14-day oral gavage toxicokinetic study in rats; assay type: in vivo; conditions: female, rat, plasma, po, 30 mg/kg, Individual Compound 1 Plasma Concentration, rats, daily oral 30 mg/kg, Day 1, Female, […]
testReadout: concentration at […]

Provide one value: measured concentration at […] of CN1CCN(c2ccc(Nc3ncc4cc5n(c4n3)C3(CCCCC3)CNC5=O)nc2)CC1 114 ng/mL
